As shown below, each of these compounds has a reported IC50 value.
# MEASURED ON: PKC epsilon (Homo sapiens, UniProt Q02156)
# Construct: purchased Invitrogen P2282
# Sequence (Q02156 1-737): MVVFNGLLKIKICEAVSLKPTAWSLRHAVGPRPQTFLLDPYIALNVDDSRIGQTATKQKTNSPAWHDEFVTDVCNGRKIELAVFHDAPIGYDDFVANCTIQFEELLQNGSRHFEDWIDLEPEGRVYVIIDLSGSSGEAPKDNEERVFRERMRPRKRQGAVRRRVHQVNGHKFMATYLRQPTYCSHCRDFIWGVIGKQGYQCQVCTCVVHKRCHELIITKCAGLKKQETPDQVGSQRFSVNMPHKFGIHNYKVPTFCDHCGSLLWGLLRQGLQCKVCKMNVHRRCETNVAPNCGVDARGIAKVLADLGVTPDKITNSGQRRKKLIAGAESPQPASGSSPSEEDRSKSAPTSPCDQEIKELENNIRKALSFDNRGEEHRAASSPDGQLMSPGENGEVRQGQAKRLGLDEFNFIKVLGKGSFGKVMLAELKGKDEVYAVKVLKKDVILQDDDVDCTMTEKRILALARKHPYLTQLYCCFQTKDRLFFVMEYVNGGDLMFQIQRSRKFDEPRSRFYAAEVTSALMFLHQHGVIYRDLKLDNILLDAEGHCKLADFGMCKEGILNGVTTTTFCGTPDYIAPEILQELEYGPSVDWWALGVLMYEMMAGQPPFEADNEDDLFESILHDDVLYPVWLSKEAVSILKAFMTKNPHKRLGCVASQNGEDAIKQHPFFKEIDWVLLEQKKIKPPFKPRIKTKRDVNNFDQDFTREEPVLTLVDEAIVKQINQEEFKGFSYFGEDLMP
# TEST NAME: Biochemical assay for PKC epsilon (fluorescence polarization, Protein Kinase C Assay Kit, Red)
# SETUP CONDITIONS: read-out: IC50 μM PKCε

Please review the following examples before continuing.
CN(CC(N)c1ccc(C(=O)Nc2ccncc2)cc1)C(=O)C1(c2ccc(F)cc2)CCC1 (stereo not shown) ... 0.5 to 5 µM
N[C@H](CNC(=O)C1(c2ccc(Cl)cc2)CC1)c1ccc(C(=O)Nc2ccncc2)cc1 ... < 0.05 µM
NC(c1ccc(C(=O)Nc2ccncc2)cc1)C1CCCN1C(=O)Cc1ccc(Cl)cc1 (stereo not shown) ... 0.5 to 5 µM
CC(C)(C(=O)NC[C@@H](N)c1ccc(C(=O)Nc2ccncc2)cc1)c1ccc(Cl)cc1 ... < 0.05 µM
CN(CC(N)c1ccc(C(=O)Nc2ccncc2)cc1)C(=O)C1(c2ccc(Cl)c(Cl)c2)CC1 (stereo not shown) ... 5 to 50 µM

I'm curious: which IC50 was measured for NC(c1ccc(C(=O)Nc2ccncc2)cc1)C1CCCN1C(=O)Cc1c[nH]c2ccccc12 (stereo not shown) tested on PKC epsilon (Homo sapiens, UniProt Q02156)?
0.5 to 5 µM

Then what about the compound COc1cc(CC(=O)N2CCCC2C(N)c2ccc(C(=O)Nc3ccncc3)cc2)cc(OC)c1OC (stereo not shown) ?
5 to 50 µM

Try the compound NC(c1ccc(C(=O)Nc2ccncc2)cc1)C1CCCN1C(=O)Cc1cccc(F)c1F (stereo not shown)
0.5 to 5 µM

Subsequent entry: NC(c1ccc(C(=O)Nc2ccncc2)cc1)C1CCCN1C(=O)C1(c2ccc(F)c(F)c2)CCCC1 (stereo not shown)
0.5 to 5 µM

Thanks! And N[C@@H](CC(=O)NCc1ccc(F)cc1)c1ccc(C(=O)Nc2ccncc2)cc1 ?
0.05 to 0.5 µM

* * *

# MEASURED ON: human ROCKα/ROCKII mix (Homo sapiens, UniProt O75116)
# Construct: purchased Upstate Biotechnology 14-451
# Sequence (O75116 11-552 limits assumed): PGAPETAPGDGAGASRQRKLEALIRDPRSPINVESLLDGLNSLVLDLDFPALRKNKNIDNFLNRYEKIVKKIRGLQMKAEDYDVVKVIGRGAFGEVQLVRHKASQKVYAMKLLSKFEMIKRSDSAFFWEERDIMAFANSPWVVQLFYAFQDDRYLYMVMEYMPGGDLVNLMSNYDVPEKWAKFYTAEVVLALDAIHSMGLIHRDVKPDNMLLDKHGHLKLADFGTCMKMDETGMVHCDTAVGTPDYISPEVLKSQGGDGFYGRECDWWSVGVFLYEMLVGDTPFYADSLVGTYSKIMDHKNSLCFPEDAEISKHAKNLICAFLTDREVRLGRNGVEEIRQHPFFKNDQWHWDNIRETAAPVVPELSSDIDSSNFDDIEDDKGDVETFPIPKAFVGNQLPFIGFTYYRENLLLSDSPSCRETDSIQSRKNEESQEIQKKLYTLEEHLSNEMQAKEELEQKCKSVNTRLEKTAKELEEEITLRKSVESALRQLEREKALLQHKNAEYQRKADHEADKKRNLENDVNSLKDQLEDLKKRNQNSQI
# TEST NAME: Biochemical assay for ROCK (fluorescence polarization, ROCK IMAP Kit)
# SETUP CONDITIONS: Table 2, compounds of Formula XIII
# Experimental: The compounds were tested for inhibition of human ROCKα/ROCKII mix. The inhibition assays were performed with a fluorescence polarization (FP) assay using the commercially available ROCK IMAP Kit from Molecular Devices (Product ID. No. R8093), essentially in accordance with the protocol supplied by the manufacturer. […] The enzyme mix ROCKα/ROCKII was obtained from Upstate Biotechnology (Product ID No 14-451). […]
OBSERVATION TYPE: IC50

Known results for molecules:
CC(C)=NOC(C)C(=O)NCC(N)c1ccc(C(=O)Nc2ccncc2)cc1 (centres unmarked) ... 0.5 to 5 µM
N#Cc1ccc(C(=O)NCC(N)c2ccc(C(=O)Nc3ccncc3)cc2)cc1 (centres unmarked) ... 0.5 to 5 µM
NC(CNC(=O)C1Cc2ccccc21)c1ccc(C(=O)Nc2ccncc2)cc1 (centres unmarked) ... 0.05 to 0.5 µM
NC(CNC(=O)CC1CC1)c1ccc(C(=O)Nc2ccncc2)cc1 (centres unmarked) ... 0.5 to 5 µM
NC(CNC(=O)c1nccc2ccccc12)c1ccc(C(=O)Nc2ccncc2)cc1 (centres unmarked) ... 0.5 to 5 µM
NC(CNC(=O)CCc1ccccc1)c1ccc(C(=O)Nc2ccncc2)cc1 (centres unmarked) ... 0.05 to 0.5 µM
NC(CNC(=O)Cc1c(F)cccc1F)c1ccc(C(=O)Nc2ccncc2)cc1 (centres unmarked) ... 0.5 to 5 µM
NC(CNC(=O)[C@H]1CCC(=O)N1)c1ccc(C(=O)Nc2ccncc2)cc1 (some centres unmarked) ... 0.05 to 0.5 µM
CC(=NOC(C)(C)C)c1ccc(C(=O)NCC(N)c2ccc(C(=O)Nc3ccncc3)cc2)s1 (centres unmarked) ... 0.5 to 5 µM
NC(CNC(=O)COc1ccccc1)c1ccc(C(=O)Nc2ccncc2)cc1 (centres unmarked) ... 0.05 to 0.5 µM

Form field: reported IC50 of NC(CNC(=O)c1ccc(=O)[nH]n1)c1ccc(C(=O)Nc2ccncc2)cc1 (centres unmarked)
0.5 to 5 µM

* * *

# MEASURED ON: PKC epsilon (Homo sapiens)
# Construct: purchased Invitrogen P2282
# TEST NAME: Biochemical assay for PKC epsilon (fluorescence polarization, Protein Kinase C Assay Kit, Red)
# SETUP CONDITIONS: compounds of Formula XIV, Table 3; read-out: IC50 μM PKCε
OBSERVATION TYPE: IC50

CC(CNC(=O)CC(N)c1ccc(C(=O)Nc2ccncc2)cc1)c1ccc(Cl)cc1 (centres unmarked) ... 0.05 to 0.5 µM
NC(CC(=O)Nc1ccc2cc[nH]c2c1)c1ccc(C(=O)Nc2ccncc2)cc1 (centres unmarked) ... 0.05 to 0.5 µM
NC(CC(=O)Nc1ccccc1)c1ccc(C(=O)Nc2ccncc2)cc1 (centres unmarked) ... 0.5 to 5 µM
NC(CC(=O)NCCc1ccccc1Cl)c1ccc(C(=O)Nc2ccncc2)cc1 (centres unmarked) ... 0.5 to 5 µM
NC(CC(=O)Nc1ccc(CO)cc1)c1ccc(C(=O)Nc2ccncc2)cc1 (centres unmarked) ... 0.5 to 5 µM
NC(CC(=O)NCc1ccc(F)cc1Cl)c1ccc(C(=O)Nc2ccncc2)cc1 (centres unmarked) ... 0.5 to 5 µM
NC(CC(=O)NCCc1ccc(Cl)cc1Cl)c1ccc(C(=O)Nc2ccncc2)cc1 (centres unmarked) ... 0.5 to 5 µM

Quick one: IC50 for COc1cccc(CCNC(=O)CC(N)c2ccc(C(=O)Nc3ccncc3)cc2)c1 (centres unmarked) ?
0.5 to 5 µM

* * *

# MEASURED ON: PKC epsilon (Homo sapiens)
# Construct: purchased Invitrogen P2282
# TEST NAME: Biochemical assay for PKC epsilon (fluorescence polarization, Protein Kinase C Assay Kit, Red)
# SETUP CONDITIONS: read-out: IC50 μM PKCε
OBSERVATION TYPE: IC50

NC(c1ccc(C(=O)Nc2ccncc2)cc1)C1CCCN1C(=O)Cc1ccc(Br)cc1 (stereo not drawn) ... 0.5 to 5 µM
COc1ccc(C2(C(=O)N3CCCC3C(N)c3ccc(C(=O)Nc4ccncc4)cc3)CCCC2)cc1 (stereo not drawn) ... 0.5 to 5 µM
N[C@@H](CNC(=O)C1(c2ccc(F)cc2)CCCC1)c1ccc(C(=O)Nc2ccncc2)cc1 ... 0.05 to 0.5 µM
NC(c1ccc(C(=O)Nc2ccncc2)cc1)C1CCCN1C(=O)Cc1c(F)cccc1Cl (stereo not drawn) ... 5 to 50 µM
COc1cccc(NC(=O)NCC(N)c2ccc(C(=O)Nc3ccncc3)cc2)c1 (stereo not drawn) ... 0.5 to 5 µM

Which value of IC50 has been reported for CC(C)(C(=O)N1CCCC1C(N)c1ccc(C(=O)Nc2ccncc2)cc1)c1ccc(Cl)c(Cl)c1 (stereo not drawn) in the records?
5 to 50 µM

* * *

Measured IC50, listed per entry for reference.
# MEASURED ON: PKC epsilon (Homo sapiens, UniProt Q02156)
# Construct: purchased Invitrogen P2282
# Sequence (Q02156 1-737): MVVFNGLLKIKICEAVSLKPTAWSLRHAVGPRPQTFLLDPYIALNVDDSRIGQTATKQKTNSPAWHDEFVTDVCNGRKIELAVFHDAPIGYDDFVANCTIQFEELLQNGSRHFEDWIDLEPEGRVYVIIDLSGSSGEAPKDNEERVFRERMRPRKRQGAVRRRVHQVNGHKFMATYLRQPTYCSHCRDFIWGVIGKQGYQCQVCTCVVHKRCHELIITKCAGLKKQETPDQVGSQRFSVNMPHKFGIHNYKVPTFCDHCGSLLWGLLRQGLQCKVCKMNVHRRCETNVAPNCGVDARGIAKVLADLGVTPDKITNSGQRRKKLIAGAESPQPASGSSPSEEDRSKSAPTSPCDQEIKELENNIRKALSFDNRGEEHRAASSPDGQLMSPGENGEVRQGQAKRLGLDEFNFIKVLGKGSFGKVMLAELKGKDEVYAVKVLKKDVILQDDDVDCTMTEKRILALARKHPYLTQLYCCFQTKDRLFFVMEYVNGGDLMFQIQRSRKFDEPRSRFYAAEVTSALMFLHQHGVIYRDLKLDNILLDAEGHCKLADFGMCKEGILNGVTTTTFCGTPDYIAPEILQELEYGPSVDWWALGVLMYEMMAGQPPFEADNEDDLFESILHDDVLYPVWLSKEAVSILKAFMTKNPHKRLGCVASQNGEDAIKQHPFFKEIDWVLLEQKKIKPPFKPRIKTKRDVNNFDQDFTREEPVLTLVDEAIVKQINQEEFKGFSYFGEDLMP
# TEST NAME: Biochemical assay for PKC epsilon (fluorescence polarization, Protein Kinase C Assay Kit, Red)
# SETUP CONDITIONS: Table 2, compounds of Formula XIII; read-out: IC50 μM PKCε

NC(CNC(=O)c1cccc(Br)c1)c1ccc(C(=O)Nc2ccncc2)cc1 (centres unmarked) ... 0.5 to 5 µM
NC(CNC(=O)c1ccc([N+](=O)[O-])o1)c1ccc(C(=O)Nc2ccncc2)cc1 (centres unmarked) ... 0.5 to 5 µM
NC(CNC(=O)CSc1ncccn1)c1ccc(C(=O)Nc2ccncc2)cc1 (centres unmarked) ... 5 to 50 µM
COc1cccc(C(=O)NCC(N)c2ccc(C(=O)Nc3ccncc3)cc2)c1 (centres unmarked) ... 0.5 to 5 µM

We now examine a further compound.
Any idea what its IC50 is? The compound is NC(CNC(=O)C1(c2cccs2)CC1)c1ccc(C(=O)Nc2ccncc2)cc1 (centres unmarked)
0.05 to 0.5 µM
